test system: alpha-synuclein 5′-UTR IRE (SNCA 5′UTR); test: Primary screen/retest: ASYN 5′-UTR IRE-driven luciferase expression in H4 cells; assay type: cell-based, human; settings: Table 2; H4 cells, luciferase, 48 h; read-out: IC50/μM (SNCA 5′UTR)
Parameter Measured: IC50

Name the recorded IC50 of the compound listed here: CN1CC[C@]2(C)c3cc(OC(=O)Nc4ccccc4)ccc3N(C)[C@H]12 [Posiphen, reference compound] 10 µM

###

tested on: alpha-synuclein 5′-UTR IRE (SNCA 5′UTR); assay: Primary screen/retest: ASYN 5′-UTR IRE-driven luciferase expression in H4 cells; type: cell-based, human; details: Homo sapiens; Table 2; H4 cells, luciferase, 48 h; read-out: IC50/μM (SNCA 5′UTR)
Hi! Could you tag entries with IC50 below 0.2 µM as rule met, and those at or above as rule not met? Much appreciated.

The following compounds have reported results that may help.
Compound: COc1ccc(/C=C/C(=O)c2cc(F)ccc2OC(=O)c2ccccc2)cc1OC
Qualitative Label: rule met
--
Compound: O=C(c1ccc(C[S+]([O-])c2ccccc2Cl)o1)N1CCN(c2ccccc2)CC1 (stereo not drawn)
Qualitative Label: rule met
--
Compound: COc1cccc(N2CCN(C(=O)c3ccc(C[S+]([O-])c4ccc(C)cc4)o3)CC2)c1 (stereo not drawn)
Qualitative Label: rule met

Just wondering, is IC50 of Cc1cc(C)cc(Nc2nc3ccc(C)cc3n3cnnc23)c1 below 0.2 µM? rule not met

Just wondering, is IC50 of CCC1=Nc2cc(C(=O)NCCCOC)ccc2Sc2ccccc21 below 0.2 µM? rule met

###

system: PGL3 5′UTR; assay: Secondary (counterscreen) luciferase assay in H4-C cells, IRE stem-loop removed; assay type: cell-based, human; details: Table 2; versus SNCA 5′UTR
Listing of recorded Selectivity PGL3 5′UTR by entry.

Example compounds with recorded Selectivity PGL3 5′UTR:
Compound: COc1ccc(/C=C/C(=O)c2cc(F)ccc2OC(=O)c2ccccc2)cc1OC
Measured: 66-fold
//
Compound: CCC1=Nc2cc(C(=O)NCCCOC)ccc2Sc2ccccc21
Measured: 68-fold
//
Compound: COc1cccc(N2CCN(C(=O)c3ccc(C[S+]([O-])c4ccc(C)cc4)o3)CC2)c1 (stereo not shown)
Measured: 58-fold
//
Compound: COC(=O)c1c(NC(=O)c2ccc([N+](=O)[O-])o2)sc2c1CCN(C(C)C)C2
Measured: 1,200-fold
//
Compound: CCOC(=O)c1[nH]c(C)c(C(=O)c2cc(F)ccc2F)c1C
Measured: 53-fold

Name the recorded Selectivity PGL3 5′UTR of the compound listed here: COc1ccc(N(CC(=O)Nc2cc(Cl)ccc2OC)S(=O)(=O)c2c(C)noc2C)cc1 21-fold

Name the recorded Selectivity PGL3 5′UTR of the compound listed here: COC(=O)C1CC23C=CCN4CCC5(c6ccccc6NC15C2C)C43 (stereo not shown) 31-fold

Name the recorded Selectivity PGL3 5′UTR of the compound listed here: Cc1cc(C)cc(Nc2nc3ccc(C)cc3n3cnnc23)c1 43-fold

Name the recorded Selectivity PGL3 5′UTR of the compound listed here: O=C(c1ccc(C[S+]([O-])c2ccccc2Cl)o1)N1CCN(c2ccccc2)CC1 (stereo not shown) 80-fold

Name the recorded Selectivity PGL3 5′UTR of the compound listed here: CN(C)c1nc(N)nc(CSc2nnnn2-c2cccc3ccccc23)n1 34-fold
